Target: human IL-1β (human, UniProt P01584 117-269)
Test: cell-based or functional assay
Here the recorded MRC5 IL-1β is given for each entry.
Use nM as the unit, but write only the number.

The cases that follow already have their MRC5 IL-1β on record.
>  <binder>
ABT2-108-538x/ABT1-95-A3 hu IgG1mut 234, 235/K (bispecific antibody, V domains shown) VH: EVQLLESGGGLVQPGGSLRLSCAASGFTFADEGMMWVRQAPGKGLEWVSRITYSGKNTYYADSVKGRFTISRDNSKNTLYLQMNSLRAEDTAVYYCAKYTGRILGHHLFDYWGQGTLVTVSS VL: DIQMTQSPSSLSASVGDRVTITCRASKPGVRNMRWYQQKPGKAPKLLIYSVSYLEPGVPSRFSGSGSGTDFTLTISSLQPEDFATYHCLQGYRWPPTFGQGTKVEIKR

>  <readout value>
0.023

$$$$
>  <binder>
ABT2-108-538x/ABT1-95-15 huIgG1/K wt (bispecific antibody, V domains shown, hu IgG1/K wt) VH: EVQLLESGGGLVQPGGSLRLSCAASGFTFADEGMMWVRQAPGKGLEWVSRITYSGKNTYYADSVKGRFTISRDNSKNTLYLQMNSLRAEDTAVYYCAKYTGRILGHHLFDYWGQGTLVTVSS VL: DIQMTQSPSSLSASVGDRVTITCRASQPIVRNLRWYQQKPGKAPKLLIYSSSYLEPGVPSRFSGSGSGTDFTLTISSLQPEDFATYHCQQGYRWPVTFGQGTKVEIKR

>  <readout value>
0.042

$$$$
>  <binder>
ABT2-65-17/ABT1-95-15 huIgG1/K wt (bispecific antibody, V domains shown) VH: EVQLLESGGGLVQPGGSLRLSCVASGFTFEDYQMGWVRQAPGKGLEWVSSISAMGNRTYYADSVKGRFTISRDDSKNTLYLQMNSLRAEDTAVYYCAQNLVRLGRSRWMFDYWGQGTLVTVSS VL: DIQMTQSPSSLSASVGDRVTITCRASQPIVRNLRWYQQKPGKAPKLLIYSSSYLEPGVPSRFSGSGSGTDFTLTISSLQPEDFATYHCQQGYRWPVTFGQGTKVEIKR

>  <readout value>
0.094

$$$$
>  <binder>
ABT2-108-521/ABT1-122 hu IgG1/K wt (bispecific antibody, V domains shown) VH: EVQLLESGGGLVQPGGSLRLSCAASGFTFAEYTMMWVRQAPGKGLEWVSRIGQDGKNTYYADSVKGRFTISRDNSKNTLYLQMNSLRAEDTAVYYCAKYTGRILGHHLFDYWGQGTLVTVSS VL: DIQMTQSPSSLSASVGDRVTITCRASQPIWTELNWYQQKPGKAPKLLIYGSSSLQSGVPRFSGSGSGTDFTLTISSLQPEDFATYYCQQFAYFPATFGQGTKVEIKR

>  <readout value>
1

$$$$
>  <binder>
ABT2-65-17/ABT1-141-25 hu IgG1/K wt (bispecific antibody, V domains shown) VH: EVQLLESGGGLVQPGGSLRLSCVASGFTFEDYQMGWVRQAPGKGLEWVSSISAMGNRTYYADSVKGRFTISRDDSKNTLYLQMNSLRAEDTAVYYCAQNLVRLGRSRWMFDYWGQGTLVTVSS VL: DIQMTQSPSSLSASVGDRVTITCRASQWIQKQLAWYQQKPGKAPKLLIYSSSYLQSGVPSRFSGSGSGTDFTLTISSLQPEDFATYYCQQHLRVPMTFGQGTKVEIKR

>  <readout value>
0.975

$$$$

Notebook: ABT2-108/ABT1-122-511 hu IgG1/K wt (bispecific antibody, V domains shown) VH: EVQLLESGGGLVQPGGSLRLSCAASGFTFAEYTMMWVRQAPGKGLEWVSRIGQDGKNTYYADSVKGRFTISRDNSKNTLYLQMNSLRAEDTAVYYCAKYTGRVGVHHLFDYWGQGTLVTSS VL: DIQMTQSPSSLSASVGDRVTITCRASQPIWTELNWYQQKPGKAPKLLIYGSSSLQRGVPSRFSGSGSGTDFTLTISSLQPEDFATYYCKQFAYFPATFGQGTKVEIKR , MRC5 IL-1β read as 8

Recorded result, ABT2-108/ABT1-141 hu IgG1/K wt (bispecific antibody, V domains shown) VH: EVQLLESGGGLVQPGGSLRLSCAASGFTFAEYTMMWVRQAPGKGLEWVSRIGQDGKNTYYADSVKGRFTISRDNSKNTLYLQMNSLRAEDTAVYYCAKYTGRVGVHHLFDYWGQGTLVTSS VL: DIQMTQSPSSLSASVGDRVTITCRASQWIQKQLAWYQQKPGKAPKLLIYSSSYLQSGVPRFSGSGSGTDFTLTISSLQPEDFATYYCQQHLRVPFTFGQGTKVEIKR , MRC5 IL-1β: 22

# MRC5 IL-1β of ABT2-65-166/ABT1-95-A3 huIgG1/K wt (bispecific antibody, V domains shown, hu IgG1/K wt; also called 1-95-A3 / 2-65-166) VH: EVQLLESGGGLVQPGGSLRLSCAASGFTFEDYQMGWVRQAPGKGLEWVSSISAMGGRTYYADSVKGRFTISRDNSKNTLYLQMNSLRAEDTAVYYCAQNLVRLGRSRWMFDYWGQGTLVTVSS VL: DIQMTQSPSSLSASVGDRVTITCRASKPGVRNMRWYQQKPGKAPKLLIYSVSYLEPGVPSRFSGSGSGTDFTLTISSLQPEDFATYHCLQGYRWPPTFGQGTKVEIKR = 0.15

// recorded MRC5 IL-1β for ABT2-65-166/ABT1-95-A5 hu IgG1mut 234, 235/K (bispecific antibody, V domains shown) VH: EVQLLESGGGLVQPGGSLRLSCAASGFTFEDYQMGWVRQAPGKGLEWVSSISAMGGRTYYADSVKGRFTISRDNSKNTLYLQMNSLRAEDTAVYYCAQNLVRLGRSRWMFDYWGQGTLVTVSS VL: DIQMTQSPSSLSASVGDRVTITCRASRTPVRNLRWYQQKPGKAPKLLIYSRSFLEPGVPSRFSGSGSGTDFTLTISSLQPEDFATYHCLQGYRWPPTFGQGTKVEIKR : 0.197
